Target: RNF31 PUB domain (Homo sapiens, UniProt Q96EP0)
Construct: MBP-TEV (N, cleaved yes); made in house; host or cells: E. coli BL21 (DE3) pLysS
Sequence (Q96EP0 1-179): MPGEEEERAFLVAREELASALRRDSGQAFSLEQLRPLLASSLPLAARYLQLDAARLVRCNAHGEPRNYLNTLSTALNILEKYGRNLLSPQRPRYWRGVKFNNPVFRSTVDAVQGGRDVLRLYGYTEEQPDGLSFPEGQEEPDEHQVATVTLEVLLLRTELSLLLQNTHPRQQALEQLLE
Experiment: Phage Library Screening with NGS, RNF31 PUB domain
Type: binding
Conditions: RNF31 PUB domain clusters C41-C45; target concentration 1000, second column
Bridge positions count the residues as written; N and C are the ends. Ends that are not written are not given here.
Reported Phage library screen NGS readout, Target Concentration 1000 values follow for various sequences
endpoint: Phage library screen NGS readout, Target Concentration 1000

INSERT INTO results (sequence_content, test_system, measured_value) VALUES
  ('DPAYRDCDWAALYCDDF', 'RNF31 PUB domain (Homo sapiens, UniProt Q96EP0)', 12),
  ('DPALWDCLYAADACITS (not fully specified; cysteine pairing not given here)', 'RNF31 PUB domain (Homo sapiens, UniProt Q96EP0)', 12),
  ('DPAYTLCSWAAMYCDSM', 'RNF31 PUB domain (Homo sapiens, UniProt Q96EP0)', 6),
  ('DPAWEHCLYAAYDCTHE', 'RNF31 PUB domain (Homo sapiens, UniProt Q96EP0)', 15),
  ('DPAYDLCLNAAVACTYV', 'RNF31 PUB domain (Homo sapiens, UniProt Q96EP0)', 71),
  ('DPAWWNCLYAANTCVED', 'RNF31 PUB domain (Homo sapiens, UniProt Q96EP0)', 5),
  ('DPAQMECIDAAIMCSYT', 'RNF31 PUB domain (Homo sapiens, UniProt Q96EP0)', 5),
  ('DPAFQFCVEAAVACSYY', 'RNF31 PUB domain (Homo sapiens, UniProt Q96EP0)', 5),
  ('DPAYSLCISAAVECTYY', 'RNF31 PUB domain (Homo sapiens, UniProt Q96EP0)', 7),
  ('DPAYWDCLYAAADCAFY', 'RNF31 PUB domain (Homo sapiens, UniProt Q96EP0)', 5),
  ('DPAQDWCMYAAYECDAH', 'RNF31 PUB domain (Homo sapiens, UniProt Q96EP0)', 9),
  ('DPAHANCQLAADVCSTY', 'RNF31 PUB domain (Homo sapiens, UniProt Q96EP0)', 33),
  ('DPAIVQCAWAALYCDMQ (Ac-DPAIVQCAWAALYCDMQ-NH2; bridge 7-14; also: Cys-Cys staple, linker not named)', 'RNF31 PUB domain (Homo sapiens, UniProt Q96EP0)', 20),
  ('DPAWESCMYAAYDCDNE', 'RNF31 PUB domain (Homo sapiens, UniProt Q96EP0)', 5);

* * *

Target: RNF31 PUB domain (Homo sapiens, UniProt Q96EP0)
Construct: MBP-TEV (N, cleaved yes); made in house; host or cells: E. coli BL21 (DE3) pLysS
Sequence (Q96EP0 1-179): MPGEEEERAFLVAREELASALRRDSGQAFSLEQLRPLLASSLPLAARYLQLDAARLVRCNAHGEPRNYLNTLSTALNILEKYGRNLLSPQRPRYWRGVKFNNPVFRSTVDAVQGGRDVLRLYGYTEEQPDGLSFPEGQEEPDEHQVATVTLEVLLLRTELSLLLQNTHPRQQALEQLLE
Test: Phage Library Screening with NGS, RNF31 PUB domain
Format: binding
Settings: RNF31 PUB domain clusters C41-C45; target concentration 300
Ends that are not written are not given here.
Outcome label depends on Phage library screen NGS readout, Target Concentration 300 relative to 2: at/above gives 1, below gives 0.

INSERT INTO assay_data (sequence_content, assigned_category) VALUES
  ('DPAQHECIYAAWDCDML', 1),
  ('DPAFWACLYAAEECVVD', 1),
  ('DPAYWDCLYAAWSCDIL', 1),
  ('DPALRDCLDAAIMCTYT', 1),
  ('DPAYDWCMYAAYNCVED', 1),
  ('DPAYWQCIYAAWDCDQM', 1),
  ('DPAYDYCLYAAYDCTQT', 1),
  ('DPAYEDCAWAALYCDMT', 1),
  ('DPAEWDCLYAAFDCFAN', 1),
  ('DPASEWCLDAAVLCTYS', 1),
  ('DPADWDCMYAAQDCFED', 0),
  ('DPAQYQCDIAAQVCSTY', 1),
  ('DPAYTLCSWAAMYCDSM', 0),
  ('DPAEDWCMYAAWDCQME', 1),
  ('DPALWDCLYAADACITS (not fully specified; cysteine pairing not given here)', 1),
  ('DPAYDLCLNAAVACTYV', 1),
  ('DPAQYQCWNAAMSCSYS', 1),
  ('DPAWWSCMYAAWTCDDT', 1),
  ('DPAFQFCVEAAVACSYY', 1),
  ('DPAYEDCADAAMYCDMD', 0),
  ('DPALVTCTWAAIYCDDF', 0),
  ('DPAADDCEWAALYCSFH', 1),
  ('DPALDYCLYAAYDCMYA', 1),
  ('DPAFTDCQLAAAVCMTY', 1),
  ('DPALSHCTVAAMVCSTY', 1),
  ('DPAWTQCDWAALYCEDQ', 0);
